# PROCEDURE_SUMMARY: qHTS for Inhibitors of human tyrosyl-DNA phosphodiesterase 1 (TDP1): qHTS in cells in presence of CPT; further: nearly all actives have a fitted effect of over 55% in size
# REPORTED_CONDITIONS: chicken DT40 Tdp1-/-;hTDP1 cells + 20 nM CPT, ATP luminescence, 48 h; series mostly up to 46.2 µM
About 50,000 (12%) of roughly 420,000 compounds were called active. Inconclusive results (about 26%) are left out. The call rests on the fitted dose curve; in most records, active means well fitted inhibition curve with a large enough effect; inconclusive means small, poorly fitted or top-dose-only effect; inactive means flat fitted curve, though single readings scatter. The entries come from a sample that favours actives as a whole.
Answer with one of the outcomes given here: active, inactive

Worked cases, answers included:
substance_smiles=O=S(=O)(NCc1cccnc1)c1ccc(Br)s1 classification=inactive
substance_smiles=COc1ccc(CC(=O)Nc2ccc3c(c2)CCC3)cc1S(=O)(=O)N1CCOCC1 classification=inactive

[Q] State the result this test recorded for Cc1ccc(S(=O)(=O)N/N=C\c2cc3c(cc2[N+](=O)[O-])OCO3)cc1 .
[A] active

[Q] Query: recorded result category for Cc1cccc(OCC(=O)OCC(=O)Nc2ccc(Cl)cn2)c1 in this test
[A] inactive

###

# PROCEDURE_SUMMARY: qHTS for Inhibitors of human tyrosyl-DNA phosphodiesterase 1 (TDP1): qHTS in cells in presence of CPT; further: nearly all actives have a fitted effect of over 55% in size
# REPORTED_CONDITIONS: chicken DT40 Tdp1-/-;hTDP1 cells + 20 nM CPT, ATP luminescence, 48 h; series mostly up to 46.2 µM
The whole screen tested about 420,000 compounds, of which about 50,000 (12%) were called active. About 26% were inconclusive and are not listed. Calls follow the shape of the dose curve; as a rule, active = well fitted inhibition curve with a large enough effect; inconclusive = small, poorly fitted or top-dose-only effect; inactive = flat fitted curve, though single readings scatter. This excerpt belongs to a sample that is enriched for actives.
Write down the outcome that applies. Available outcomes: active, inactive

Look over these answered cases.
compound="CSc1nnc(C2CCCN(CC(=O)Nc3ccccc3N3CCOCC3)C2)n1C(C)C (stereo unspecified)" classification=inactive
compound="Oc1ccc2c(c1)OCC1c3cc4c(cc3OC21)OCO4 (stereo unspecified)" classification=inactive

[Q] What is the recorded call for this compound in the test? C#CC(C)(C)NC(=O)CSc1nc2c(c(=O)n(C)c(=O)n2C)n1CCCC
[A] inactive

[Q] State the result this test recorded for Cn1c(=O)c2c(nc(SCC(=O)Nc3ccc(F)cc3)n2Cc2ccccc2)n(C)c1=O .
[A] active

[Q] Please indicate how the test categorized CCOC(=O)CSc1nc2c(c(=O)n(C)c(=O)n2C)n1Cc1ccccc1F .
[A] inactive

[Q] I'd appreciate the recorded outcome for CCCCCCC(O)(CCN1CCCCC1)c1ccccc1 (stereo unspecified) from this test.
[A] inactive

###

# PROCEDURE_SUMMARY: qHTS for Inhibitors of human tyrosyl-DNA phosphodiesterase 1 (TDP1): qHTS in cells in presence of CPT; further: nearly all actives have a fitted effect of over 55% in size
# REPORTED_CONDITIONS: chicken DT40 Tdp1-/-;hTDP1 cells + 20 nM CPT, ATP luminescence, 48 h; series mostly up to 46.2 µM
The campaign covered roughly 420,000 compounds. About 50,000 (12%) were called active. Inconclusive results (about 26%) are left out. Calls follow the shape of the dose curve; as a rule, active = well fitted inhibition curve with a large enough effect; inconclusive = small, poorly fitted or top-dose-only effect; inactive = flat fitted curve, though single readings scatter. The full list was thinned out, with actives kept by preference.
Choose the fitting class; nothing outside active, inactive is accepted.

molecule=O=c1[nH][nH]c(=O)c2cc(N3CCCC3)ccc12 classification=inactive
molecule="CC(C)c1ccc(OCC(O)Cn2cnc3ccccc32)cc1 (stereo not drawn)" classification=active
molecule="Cc1ccc(CCNC(=O)c2ccc3c(c2)nc2n3CCC(C)C2)cc1 (stereo not drawn)" classification=inactive
molecule="Cc1ccccc1OCC(O)CN1CCN(c2ccccn2)CC1 (stereo not drawn)" classification=inactive
molecule=O=C(CN1CCN(c2ccc(Cl)cc2)CC1)N1CCCC1 classification=inactive

[Q] Short answer needed: outcome of this test for O=C(NCCCN1CCCC1=O)c1cccc(S(=O)(=O)NCc2ccccc2)c1 ?
[A] inactive

[Q] Which outcome did this test record for the molecule Cn1nccc1CNC(=O)c1ccnn1C ?
[A] inactive

[Q] Dear all, I need the recorded test outcome for O=C(COC(=O)c1ccccc1OCCOc1ccccc1)Nc1cccc(Br)c1 , thank you.
[A] inactive

[Q] Identify the outcome logged in this assay for the molecule shown: C=CCNC(=O)c1ccc2c3n(nc2c1)-c1ccc(C)cc1CO3
[A] active

[Q] Give the logged outcome of this assay for the following molecule: CCOc1ccc(CCNC(=O)COC(=O)c2ccc(F)c(S(=O)(=O)N3CCOCC3)c2)cc1OCC
[A] inactive

[Q] Test call, this molecule: CC(=O)OC(COc1ccc(F)cc1)Cn1cnc2ccccc21 (stereo not drawn)
[A] inactive

[Q] Returns: the outcome recorded for CCC1(c2ccccc2)NC(=O)N(CC(=O)Nc2ccccc2C(=O)NC2CCCC2)C1=O (stereo not drawn) in this assay.
[A] inactive

###

# PROCEDURE_SUMMARY: qHTS for Inhibitors of human tyrosyl-DNA phosphodiesterase 1 (TDP1): qHTS in cells in presence of CPT; further: nearly all actives have a fitted effect of over 55% in size; further: potency means the concentration at half of the fitted maximal effect
# REPORTED_CONDITIONS: chicken DT40 Tdp1-/-;hTDP1 cells + 20 nM CPT, ATP luminescence, 48 h; series mostly up to 46.2 µM
About 50,000 (12%) of roughly 420,000 compounds were called active. About 26% were inconclusive and are not listed. What follows is part of a selection rich in actives, with near analogues and random picks from the rest.
READOUT_TYPE: Potency

molecule=COC(=O)CSc1nccc(-c2cccs2)n1 assay_result=inactive
molecule=Cc1cccc2c1cnn2C(=O)CCC(=O)NC1CCCCC1 assay_result=inactive
molecule="CCC1OC(c2ccc([N+](=O)[O-])cc2)=Nc2ccccc21 (centres undefined)" assay_result=inactive
molecule=O=C(CCS(=O)(=O)c1ccccc1)N(Cc1cccnc1)c1nc2c(F)cccc2s1 assay_result="3.66 µM (active)"
molecule=COC(=O)Cc1ccc(NC(=S)NCc2ccccc2)cc1 assay_result=inactive
molecule=NS(=O)(=O)c1ccc2nc(NC(=O)CS(=O)(=O)c3ccc(F)cc3)sc2c1 assay_result=inactive
molecule="CCN(C(=O)CSc1nnc(-c2ccc(OC(F)F)cc2)n1N)C1CCS(=O)(=O)C1 (centres undefined)" assay_result=inactive
molecule="CC1CCc2c(c3ccccc3[nH]c2=O)O1 (centres undefined)" assay_result=inactive

[Q] State its Potency: Cc1cccc2sc(N(CCCN(C)C)C(=O)CCS(=O)(=O)c3ccccc3)nc12
[A] 1.84 µM (active)

###

# PROCEDURE_SUMMARY: qHTS for Inhibitors of human tyrosyl-DNA phosphodiesterase 1 (TDP1): qHTS in cells in presence of CPT; further: nearly all actives have a fitted effect of over 55% in size
# REPORTED_CONDITIONS: chicken DT40 Tdp1-/-;hTDP1 cells + 20 nM CPT, ATP luminescence, 48 h; series mostly up to 46.2 µM
Out of some 420,000 compounds screened, about 50,000 (12%) were called active. Not shown: some 26% with an inconclusive outcome. Calls follow the shape of the dose curve; as a rule, active = well fitted inhibition curve with a large enough effect; inconclusive = small, poorly fitted or top-dose-only effect; inactive = flat fitted curve, though single readings scatter. For the sample, actives were picked, then their nearest neighbours and some compounds at random.
Hi there, use one of these labels in your reply, thanks! active, inactive

molecule=COc1ccc(/C=N/NC(=O)c2ccccc2)cc1OS(=O)(=O)c1ccccc1 classification=inactive
molecule=O=C(CN(C(=O)CCC(=O)Nc1nccs1)c1ccc(F)cc1)NCc1ccc2c(c1)OCO2 classification=inactive
molecule=O=C(NCCc1ccc(C(F)(F)F)cc1)c1ccc2c(c1)OCO2 classification=inactive
molecule=C/C(=C/C(=O)N1CCN(C)CC1)C(=O)O classification=inactive
molecule="COC(=O)c1cccc(N(C(=O)CNC(=O)c2cccs2)C(C(=O)NCC2CCCO2)c2ccc(OC)c(OC)c2)c1 (stereo not drawn)" classification=inactive

[Q] Test call, this molecule: CCOCCCNC(=O)c1cc2c(=O)n3ccccc3nc2s1
[A] inactive

[Q] Test call for this molecule, please: CCN(C(=O)Cn1c(=O)nc(-c2ccccc2)c2cc(Cl)ccc21)c1cccc(C)c1
[A] inactive

[Q] Status in this test for COc1ccccc1/C=N/Nc1nc(C)c(C(C)=O)s1 ?
[A] inactive

[Q] For COc1ccc(/C=N/Nc2ccccc2C(=O)O)cc1 , which call appears in the assay record?
[A] inactive

[Q] Please indicate how the test categorized COCC(=O)N=Nc1c(O)[nH]c2ccccc12 .
[A] inactive

[Q] I'd appreciate the recorded outcome for Cc1ccc(-c2cc(N)n(Cc3cccc(Cl)c3)n2)cc1 from this test.
[A] inactive

[Q] Tell me the recorded outcome of this test for CC(C)OC(=O)C(C#N)c1nc2ccccc2nc1N1CCN(Cc2ccccc2)CC1 (stereo not drawn) .
[A] active

[Q] What outcome does the record of this test show for COc1cc(NS(=O)(=O)c2ccccc2)ccc1-n1nc(C)cc1C ?
[A] inactive

[Q] Could you kindly confirm the outcome this assay logged for O=C(COC(=O)c1ccc(N2CCCC2=O)cc1)c1ccc(OC(F)F)cc1 ?
[A] inactive

###

# PROCEDURE_SUMMARY: qHTS for Inhibitors of human tyrosyl-DNA phosphodiesterase 1 (TDP1): qHTS in cells in presence of CPT; further: nearly all actives have a fitted effect of over 55% in size
# REPORTED_CONDITIONS: chicken DT40 Tdp1-/-;hTDP1 cells + 20 nM CPT, ATP luminescence, 48 h; series mostly up to 46.2 µM
# Protocol: Human tyrosyl-DNA phosphodiesterase 1 (TDP1) is a novel repair gene, and we propose to use it as a new target for anticancer drug development. […] For the primary screen, Tdp1-/-;hTDP1 cells will be exposed to small molecules in the presence or absence of CPT, and their growth kinetics will be evaluated after 48 hours by measuring ATP activity. […] The hit compounds will then be evaluated in the presence or absence of CPT using Tdp1-/- cells. […]
Screen size: about 420,000 compounds; about 50,000 (12%) were called active. Inconclusive results (about 26%) are left out. The call rests on the fitted dose curve; in most records, active means well fitted inhibition curve with a large enough effect; inconclusive means small, poorly fitted or top-dose-only effect; inactive means flat fitted curve, though single readings scatter. This is one part of a sample in which actives are shown more often than they occur.
Hi! Could you answer with just one of these? active, inactive

molecule=COc1ccc(Cc2nnc(SCC(=O)Nc3ccc(C)c(Cl)c3)[nH]c2=O)cc1 classification=inactive
molecule=COc1ccc(Cc2nnc(SC)[nH]c2=O)cc1 classification=active

[Q] Tell me the recorded outcome of this test for CN(CC(=O)Nc1ccc(Cl)cc1)C(=O)c1ccc(COc2ccccc2)cc1 .
[A] inactive

[Q] Answer briefly: the call reported for COc1ccc([N+](=O)[O-])cc1N(CC(O)CN(CC(C)C)CC(C)C)S(=O)(=O)c1ccc(C)cc1 (stereo unspecified) in this assay.
[A] active

[Q] Could you check what this test reported for CCc1ccc(-n2c(SCc3cc(=O)n4cc(Br)ccc4n3)nc3[nH]ncc3c2=O)cc1 ?
[A] active

[Q] Can you look up the reported call for Cc1ccccc1NC(=O)Cc1nnc(SCC(=O)N2CCN(c3ccccc3)CC2)n1C for me?
[A] inactive

[Q] Can you look up the reported call for COc1ccc(NC(=O)CCc2nnc3n(CC(C)C)c(=O)c4ccccc4n23)cc1OC for me?
[A] inactive

[Q] Could you check what this test reported for CC(=O)Nc1ccc(S(=O)(=O)NCCC(=O)N2CCN(c3ccccc3Cl)CC2)cc1 ?
[A] active

[Q] // param item: CCNS(=O)(=O)c1ccc(CCC(=O)N2CCN(c3ccc(OC)cc3)CC2)cc1 ; yields the recorded call
[A] inactive

Origin of the recorded values: PubChem BioAssay AID686979
